The values you see were collected from patent US6506772B1.

Entries and their selectivity (A1/A2a)
Target: human adenosine A2A receptor (Homo sapiens, UniProt P29274)
Construct: expressed in transfected cells; host or cells: CHO cells, Semliki Forest virus expression system; membrane preparation
Sequence (P29274 whole entry): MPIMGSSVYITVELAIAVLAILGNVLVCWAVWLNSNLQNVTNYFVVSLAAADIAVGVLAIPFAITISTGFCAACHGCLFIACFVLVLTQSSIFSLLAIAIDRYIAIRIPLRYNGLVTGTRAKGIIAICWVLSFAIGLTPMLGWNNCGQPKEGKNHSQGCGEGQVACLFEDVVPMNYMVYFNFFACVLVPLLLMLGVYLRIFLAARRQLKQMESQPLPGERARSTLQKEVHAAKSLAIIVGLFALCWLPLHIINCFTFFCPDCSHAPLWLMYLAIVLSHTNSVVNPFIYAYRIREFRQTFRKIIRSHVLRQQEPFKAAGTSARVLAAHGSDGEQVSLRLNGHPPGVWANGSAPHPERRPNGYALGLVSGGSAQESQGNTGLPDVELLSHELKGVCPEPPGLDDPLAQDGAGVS
Test: Human adenosine A2A receptor [3H]-SCH-58261 binding assay
Details: calculated ratio of the affinity to the HA1 receptor to the HA2a receptor
Reply with the value as a number alone.

Looking for the measured selectivity (A1/A2a) of CC(NC(=O)c1cc(N)n2nc(-c3ccccc3)nc2c1)c1ccccc1 (centres unmarked) , can you help?
0.9

Same question, `COc1ccc(-c2nc3cc(C(=O)N(C)CCc4ccccc4)cc(N)n3n2)s1` this time
2.5

Same question, `COc1ccc(CNC(=O)c2cc(N)n3nc(-c4ccc(C)o4)nc3c2)cc1` this time
5.2

Same question, CC1CCC(C)N1C(=O)c1cc(N)n2nc(-c3ccc(Cl)o3)nc2c1 (centres unmarked) this time
30.6

---
Looking for the measured selectivity (A1/A2a) of Cc1ccc(-c2nc3cc(C(=O)NC(C)c4ccccc4)cc(N)n3n2)o1 (centres unmarked) , can you help?
5.2

* * *

Target: human adenosine A2A receptor (Homo sapiens, UniProt P29274)
Construct: expressed in transfected cells; host or cells: CHO cells, Semliki Forest virus expression system; membrane preparation
Assay: Human adenosine A2A receptor [3H]-SCH-58261 binding assay
Details: calculated ratio of the affinity to the HA1 receptor to the HA2a receptor
reportedProperty: selectivity (A1/A2a)
Reply with the value as a number alone.

Recorded selectivity (A1/A2a), per entry:
Could you share what selectivity (A1/A2a) was measured for Nc1cc(C(=O)N2CCCC2)cc2nc(-c3ccccc3O)nn12 [Example 118] , tested on human adenosine A2A receptor (Homo sapiens, UniProt P29274)?
15.5

Same question, CCNC(=O)c1cc(N)n2nc(-c3nccs3)nc2c1 [Example 328] this time
39.1

Same question, CCCN(CC1CC1)C(=O)c1cc(N)n2nc(-c3nccs3)nc2c1 [Example 319] this time
14.3

Same question, COc1ccccc1CNC(=O)c1cc(N)n2nc(-c3ccc(C)s3)nc2c1 [Example 201] this time
1.1

Same question, CCCCN(CCC)C(=O)c1cc(N)n2nc(-c3nccs3)nc2c1 [Example 334] this time
18.3

---
Could you share what selectivity (A1/A2a) was measured for CCCN(CC1CC1)C(=O)c1cc(N)n2nc(-c3ccc(Br)o3)nc2c1 [Example 298] , tested on human adenosine A2A receptor (Homo sapiens, UniProt P29274)?
42.7

Same question, Nc1cc(C(=O)NCc2ccccc2Br)cc2nc(-c3ccco3)nn12 [Example 110] this time
24.5

Same question, Nc1cc(C(=O)N2CCOCC2)cc2nc(-c3ccc(Cl)o3)nn12 [Example 237] this time
13.5

Same question, COc1ccccc1CNC(=O)c1cc(N)n2nc(-c3ccccn3)nc2c1 [Example 41] this time
4.0

* * *

Entries and their pKi
Biological target: HA1 adenosine receptor (Homo sapiens, UniProt P30542)
Sequence (P30542 whole entry): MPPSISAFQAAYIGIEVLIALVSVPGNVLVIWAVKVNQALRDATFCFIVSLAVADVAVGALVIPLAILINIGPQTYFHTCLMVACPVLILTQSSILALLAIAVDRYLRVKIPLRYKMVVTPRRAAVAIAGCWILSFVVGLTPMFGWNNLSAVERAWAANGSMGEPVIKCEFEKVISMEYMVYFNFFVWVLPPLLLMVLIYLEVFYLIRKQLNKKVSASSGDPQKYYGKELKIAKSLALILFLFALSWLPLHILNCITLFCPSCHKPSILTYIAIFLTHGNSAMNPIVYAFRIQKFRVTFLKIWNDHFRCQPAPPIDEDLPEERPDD
Test: Human adenosine A1 receptor affinity (Ki hA1)
Assay type: binding
Note on pKi: it is the negative log10 of concentration, concentration in mol/L.

Recorded pKi, per entry:
Could you share what pKi was measured for `CCCN(C)C(=O)c1cc(N)n2nc(-c3ccccn3)nc2c1` , tested on HA1 adenosine receptor (Homo sapiens, UniProt P30542)?
5.52

Same question, `Nc1cc(C(=O)N2CCCCCC2)cc2nc(-c3ccccn3)nn12` this time
6.27

Same question, `COC[C@@H]1CCCN1C(=O)c1cc(N)n2nc(-c3nccs3)nc2c1` this time
5.35

Same question, `COC[C@@H]1CCCN1C(=O)c1cc(N)n2nc(-c3ccccn3)nc2c1` this time
5.69

Same question, CC(=O)N(C)C1CCN(C(=O)c2cc(N)n3nc(-c4ccc(Br)o4)nc3c2)C1 (stereo not shown) this time
5.75

---
Could you share what pKi was measured for `CCCCN(CC)C(=O)c1cc(N)n2nc(-c3ccccn3)nc2c1` , tested on HA1 adenosine receptor (Homo sapiens, UniProt P30542)?
5.87

Same question, `COC[C@@H]1CC[C@@H](COC)N1C(=O)c1cc(N)n2nc(-c3ccc(Br)o3)nc2c1` this time
5.60

* * *

Target: human adenosine A2A receptor (Homo sapiens, UniProt P29274)
Construct: expressed in transfected cells; host or cells: CHO cells, Semliki Forest virus expression system; membrane preparation
Assay: Human adenosine A2A receptor [3H]-SCH-58261 binding assay
Settings: calculated ratio of the affinity to the HA1 receptor to the HA2a receptor
reportedProperty: selectivity (A1/A2a)
Reply with the value as a number alone.

Looking for the measured selectivity (A1/A2a) of Nc1cc(C(=O)NCc2ccccc2Cl)cc2nc(-c3ccco3)nn12 [Example 109] , can you help?
20.2

Same question, Cc1ccc(-c2nc3cc(C(=O)NC4CCCCC4)cc(N)n3n2)s1 [Example 195] this time
1.3

* * *

Biological target: human adenosine A2A receptor (Homo sapiens, UniProt P29274)
Construct: expressed in transfected cells; host or cells: CHO cells, Semliki Forest virus expression system; membrane preparation
Experiment: Human adenosine A2A receptor [3H]-SCH-58261 binding assay
Settings: ratio KiHA1 divided by KiHA2A
Entries and their selectivity (A1/A2a)
Reply with the value as a number alone.

Recorded selectivity (A1/A2a), per entry:
Looking for the measured selectivity (A1/A2a) of Nc1cc(C(=O)N2CCC3CCCCC3C2)cc2nc(-c3nccs3)nn12 (stereo not drawn) , can you help?
24.8

Same question, `C=CCN(C(=O)c1cc(N)n2nc(-c3nccs3)nc2c1)C1CCCC1` this time
13.4

Same question, `C#CCN(C)C(=O)c1cc(N)n2nc(-c3ccccn3)nc2c1` this time
26.5

Same question, Nc1cc(C(=O)N2CCCC3CCCCC32)cc2nc(-c3nccs3)nn12 (stereo not drawn) this time
17.2

---
Looking for the measured selectivity (A1/A2a) of `CN(C)C(=O)[C@@H]1CCCN1C(=O)c1cc(N)n2nc(-c3nccs3)nc2c1` , can you help?
21.2

Same question, CC1CCCN1C(=O)c1cc(N)n2nc(-c3ccccn3)nc2c1 (stereo not drawn) this time
37.8

Same question, CC1CCCN(C(=O)c2cc(N)n3nc(-c4ccccn4)nc3c2)C1 (stereo not drawn) this time
35.5

Same question, `CN(C)C(=O)CN(C)C(=O)c1cc(N)n2nc(-c3ccccn3)nc2c1` this time
53.1

Same question, CC(=O)N(C)C1CCN(C(=O)c2cc(N)n3nc(-c4ccc(Br)o4)nc3c2)C1 (stereo not drawn) this time
51.2

* * *

Entries and their selectivity (A1/A2a)
Target: human adenosine A2A receptor (Homo sapiens)
Construct: expressed in transfected cells; host or cells: CHO cells, Semliki Forest virus expression system; membrane preparation
Assay: Human adenosine A2A receptor [3H]-SCH-58261 binding assay
Conditions: calculated ratio of the affinity to the HA1 receptor to the HA2a receptor

Recorded selectivity (A1/A2a), per entry:
Looking for the measured selectivity (A1/A2a) of CCN(Cc1ccncc1)C(=O)c1cc(N)n2nc(-c3ccc(Br)o3)nc2c1 [Example 314] , can you help?
49.3

Same question, CCCCNC(=O)c1cc(N)n2nc(-c3ccccc3O)nc2c1 [Example 158] this time
3.0

Same question, COc1ccc(CNC(=O)c2cc(N)n3nc(-c4ccc(C)o4)nc3c2)cc1OC [Example 142] this time
14.6

Same question, CC1CN(C(=O)c2cc(N)n3nc(-c4ccc(Br)o4)nc3c2)CC(C)O1 (stereo not drawn) [Example 304] this time
41.0

Same question, Nc1cc(C(=O)N2CCCCC2)cc2nc(-c3cc(Br)co3)nn12 [Example 171] this time
4.3

We now examine a further molecule.
Looking for the measured selectivity (A1/A2a) of Nc1cc(C(=O)NCc2ccccc2)cc2nc(-c3ccccn3)nn12 [Example 46] , can you help?
3.0

* * *

Entries and their selectivity (A1/A2a)
Molecular target: human adenosine A2A receptor (Homo sapiens, UniProt P29274)
Construct: expressed in transfected cells; host or cells: CHO cells, Semliki Forest virus expression system; membrane preparation
Test: Human adenosine A2A receptor [3H]-SCH-58261 binding assay
Settings: calculated ratio of the affinity to the HA1 receptor to the HA2a receptor
Reply with the value as a number alone.

Recorded selectivity (A1/A2a), per entry:
Could you share what selectivity (A1/A2a) was measured for Cc1ccsc1-c1nc2cc(C(=O)N3CCCCC3)cc(N)n2n1 [Example 189] , tested on human adenosine A2A receptor (Homo sapiens, UniProt P29274)?
2.9

Same question, Nc1cc(C(=O)NC2CCCCC2)cc2nc(-c3nccs3)nn12 [Example 123] this time
16.0

Same question, CCCCN(C)C(=O)c1cc(N)n2nc(-c3ccc(Br)o3)nc2c1 [Example 271] this time
22.9

Same question, CCCCNC(=O)c1cc(N)n2nc(-c3cc(Br)co3)nc2c1 [Example 168] this time
2.6

Same question, CCN(C(=O)c1cc(N)n2nc(-c3ccc(OC)s3)nc2c1)C(C)C [Example 65] this time
4.1

Same question, Nc1cc(C(=O)N2CCCCC2c2cccnc2)cc2nc(-c3ccc(Br)o3)nn12 (stereo not drawn) [Example 354] this time
15.7

We now examine a further molecule.
Could you share what selectivity (A1/A2a) was measured for Nc1cc(C(=O)N2CCN(Cc3ccccc3)CC2)cc2nc(-c3ccc(Br)o3)nn12 [Example 310] , tested on human adenosine A2A receptor (Homo sapiens, UniProt P29274)?
2.1
